# target-under-test: GST-hCASK PDZ fusion protein (residues 489-572) (human)
# measurement-notes: pull-down
No end group written: not given here.
assay-readout: IC50

Give recorded IC50. APTKEFYA-OH [COOH-terminal syndecan-2 peptide (APTKEFYA-COOH)]
40 to 70 µM
